Catalogue of pIC50 readings, one per entry.
Measured target: UniProt:P51449
Sequence (P51449 whole entry): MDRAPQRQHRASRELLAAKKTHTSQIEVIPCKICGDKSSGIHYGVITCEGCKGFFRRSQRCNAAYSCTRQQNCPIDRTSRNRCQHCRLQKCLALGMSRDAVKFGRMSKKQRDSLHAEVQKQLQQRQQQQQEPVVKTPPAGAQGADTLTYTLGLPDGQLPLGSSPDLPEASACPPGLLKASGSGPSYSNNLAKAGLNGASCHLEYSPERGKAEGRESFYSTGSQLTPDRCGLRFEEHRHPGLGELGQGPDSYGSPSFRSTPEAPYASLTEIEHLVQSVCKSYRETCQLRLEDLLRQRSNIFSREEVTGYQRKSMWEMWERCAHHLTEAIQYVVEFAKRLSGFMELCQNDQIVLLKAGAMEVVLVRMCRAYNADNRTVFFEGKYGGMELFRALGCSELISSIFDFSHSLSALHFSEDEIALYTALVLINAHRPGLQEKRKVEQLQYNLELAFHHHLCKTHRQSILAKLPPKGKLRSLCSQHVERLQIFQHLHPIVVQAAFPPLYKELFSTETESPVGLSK
Experimental details: biochemical
Scale explanation: pIC50 corresponds to minus log10 of a concentration expressed in moles per litre.

| Compound | Measured target | pIC50 |
| --- | --- | --- |
| CSc1ncc(Cl)c(C(=O)Nc2sc3c(c2C(=O)NCc2ccccc2)CCCC3)n1 | UniProt:P51449 | 9.40 |

May I ask what pIC50 has been recorded for Cn1cnc(CNC(=O)c2c(NC(=O)c3cccnc3)sc3c2CCCC3)n1 ? 8.46
